Assay: BSK_hDFCGF_Proliferation: Cell Proliferation Assessment in the BioMAP Diversity Plus: hDFCGF Assay (AID 2283059);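 note: curves fitted for both rise and fall of signal versus DMSO baseline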
Conditions: primary human foreskin fibroblasts
Calls of active or inactive are those of the source. Rule for the calls: active = hit-call score of the fitted dose curve at least 0.9, where 1 is the maximum; inactive = score below 0.9.
test readout: AC50

# annotated cases, reported AC50 shown
O=C(Cl)c1cc(C(=O)Cl)cc(C(=O)Cl)c1 ... 3.77 µM (active)
c1ccc(-c2ccccn2)nc1 ... inactive
COCc1c(C(C)C)nc(C(C)C)c(/C=C/[C@@H](O)C[C@@H](O)CC(=O)O)c1-c1ccc(F)cc1 ... 0.0803 µM (active)
O=Nc1ccc(O)cc1 ... inactive
O=C(c1ccc(O)cc1)c1ccc(O)cc1O ... inactive

Could you share which AC50 value was measured for CC(C)(c1cc(Br)c(OCCO)c(Br)c1)c1cc(Br)c(OCCO)c(Br)c1 ?
4.47 µM (active)

Same lookup for Nc1ccc(N)c(Cl)c1 , please.
9.65 µM (active)

Could you do the same for CC1OC1C1CCC2(C)OC2C1 (stereo unspecified) , please?
inactive

Moving on to S=C(NC1CCCCC1)NC1CCCCC1
inactive

Also check CCO[Si](C)(OCC)OCC
inactive

Try O=c1c2ccccc2oc2ccccc12 next.
inactive
